From: patent US20190241535A1

- experiment notes: Test 4: concentration of the test compounds in plasma
- Format: in vivo
- experimental context: mouse, po, 25 mg/kg, 25 mg/kg po, 2 hr, animal 1, read-out: Concentration in plasma, animal 1
- Protocol: Administration method: The test compound scaled to a given weight was suspended in 0.5% methylcellulose to prepare an administration solution. A mouse was weighed, and the administration solution was orally administered to the mouse depending on its weight. […] Measure of the concentration in plasma: The 100 μg/mL standard solution was diluted with MeOH to prepare a sample for calibration curve which has the desired concentration. […] Each 5 μL of the samples was analyzed with an LC-MS. […]

{"columns": ["substance smiles", "concentration at 2 hr / ng/mL"],
 "data": [
  ["CN1CCN(C(=O)c2c(C(F)(F)F)oc3c2C(=O)c2ccccc2C3=O)CC1", 508]
]}
